Inhibition of IFN-gamma Release IC50; Donor 3 values by entry
- tgt: T1, human CD48 (on primary human peripheral blood mononuclear cells) (human, UniProt P09326 27-220)
- T1 sequence: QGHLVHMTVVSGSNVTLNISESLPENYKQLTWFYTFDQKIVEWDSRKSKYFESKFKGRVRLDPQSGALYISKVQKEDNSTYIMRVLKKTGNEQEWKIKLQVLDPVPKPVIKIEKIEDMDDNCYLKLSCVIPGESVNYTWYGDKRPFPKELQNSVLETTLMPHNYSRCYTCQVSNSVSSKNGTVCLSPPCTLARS
- assay.comment: cell-based or functional assay
Your answer is read as Molar, so omit the unit and give the number.

Reported Inhibition of IFN-gamma Release IC50; Donor 3 ( H2M1712N (antibody, mouse IgG2, V domains shown, Human variable domains, mouse IgG2 Fc (H2M)) VH: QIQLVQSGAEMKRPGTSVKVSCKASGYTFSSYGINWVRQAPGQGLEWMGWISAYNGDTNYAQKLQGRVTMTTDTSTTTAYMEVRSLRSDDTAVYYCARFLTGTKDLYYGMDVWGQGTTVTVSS VL: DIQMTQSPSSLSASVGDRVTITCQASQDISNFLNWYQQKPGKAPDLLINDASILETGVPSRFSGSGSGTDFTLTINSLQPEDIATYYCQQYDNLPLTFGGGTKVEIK ) = 7.2e-11

Recorded result, H2M1710N (antibody, mouse IgG2, V domains shown, Human variable domains, mouse IgG2 Fc (H2M)) VH: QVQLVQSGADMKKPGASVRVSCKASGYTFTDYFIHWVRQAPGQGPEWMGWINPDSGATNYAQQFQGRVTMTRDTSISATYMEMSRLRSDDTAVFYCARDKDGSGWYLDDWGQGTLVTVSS VL: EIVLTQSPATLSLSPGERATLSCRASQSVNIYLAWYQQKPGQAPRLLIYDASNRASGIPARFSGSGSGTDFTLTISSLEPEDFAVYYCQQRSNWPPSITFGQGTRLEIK , Inhibition of IFN-gamma Release IC50; Donor 3: 1.1e-06

Entry under test: H2M1709N (antibody, mouse IgG2, V domains shown, Human variable domains, mouse IgG2 Fc (H2M)) VH: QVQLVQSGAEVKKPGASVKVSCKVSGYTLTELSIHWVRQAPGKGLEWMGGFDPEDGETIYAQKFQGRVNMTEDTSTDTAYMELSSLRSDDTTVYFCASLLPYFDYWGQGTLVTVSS VL: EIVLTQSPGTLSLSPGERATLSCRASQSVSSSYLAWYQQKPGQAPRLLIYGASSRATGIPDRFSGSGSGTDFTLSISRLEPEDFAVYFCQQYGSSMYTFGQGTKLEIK . Its Inhibition of IFN-gamma Release IC50; Donor 3 was 1.2e-10
